biological target: IDO1 (Homo sapiens); assay: Hela cell-based IDO1 assay; details: Hela cells
Mark criterion met for EC50 under 500 nM, criterion not met if at or over.

These recorded examples may help you get a feel for the data.
>  <compound>
O[C@@H](c1c(C2CC2)ccn2cncc12)[C@H]1CC[C@H](c2cccc3ncccc32)CC1 (single isomer, unassigned) [Example C126b]

>  <testedSystem>
IDO1 (Homo sapiens)

>  <class>
criterion not met

$$$$
>  <compound>
OC(c1c(C2CC2)ccc2cncn12)C1CCC(c2ccc(Oc3ccccc3)cc2)CC1 (stereo not drawn) [Example D120]

>  <testedSystem>
IDO1 (Homo sapiens)

>  <class>
criterion not met

$$$$
>  <compound>
OC(c1c(C2CC2)ccn2cncc12)C1CCN(c2ccnc3ccc(F)cc23)CC1 (stereo not drawn) [Example C151]

>  <testedSystem>
IDO1 (Homo sapiens)

>  <class>
criterion met

$$$$
>  <compound>
OC(c1c(C2CC2)ccn2cncc12)C1CCC(c2ccc(F)cc2)CC1 (racemic) [Example C107]

>  <testedSystem>
IDO1 (Homo sapiens)

>  <class>
criterion met

$$$$
>  <compound>
COc1cccc(C2CCC(C(O)c3c(C(C)C)ccc4cncn34)CC2)c1 (stereo not drawn) [Example D169]

>  <testedSystem>
IDO1 (Homo sapiens)

>  <class>
criterion met

$$$$

Quick check: does OC(c1c(C2CC2)ccc2cncn12)C1CCN(c2ccccc2)CC1 (stereo not drawn) [Example D170] have EC50 under 500 nM?
criterion met

A record lists Cc1ccccc1[C@H]1CC[C@H]([C@@H](O)c2c(C3CC3)ccn3cncc23)CC1 (single isomer, unassigned) [Example C112b] . Is its EC50 below 500 nM?
criterion not met

----------
target: IDO1 (Homo sapiens, UniProt P14902); test: Hela cell-based IDO1 assay; settings: Hela cells
Sequence (P14902 whole entry): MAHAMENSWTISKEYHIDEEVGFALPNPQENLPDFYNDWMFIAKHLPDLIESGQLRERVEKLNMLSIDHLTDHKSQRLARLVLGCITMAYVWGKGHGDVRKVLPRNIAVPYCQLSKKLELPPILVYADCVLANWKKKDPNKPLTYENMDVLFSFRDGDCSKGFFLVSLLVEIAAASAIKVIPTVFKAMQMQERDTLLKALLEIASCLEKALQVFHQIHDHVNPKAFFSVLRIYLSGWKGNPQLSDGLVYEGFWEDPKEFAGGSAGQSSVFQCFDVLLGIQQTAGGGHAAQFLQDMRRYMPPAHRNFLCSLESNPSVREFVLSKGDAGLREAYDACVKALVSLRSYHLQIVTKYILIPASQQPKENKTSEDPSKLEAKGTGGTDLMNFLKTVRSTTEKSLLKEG
# EC50 per record follows
Number only, in nM; omit the unit.

Here is how some molecules turned out for EC50.
>  <molecule>
CC(C)c1ccc2cncn2c1C(O)C1CCC(c2ccc(Cl)cc2)CC1 (stereo not shown) [Example D115]

>  <unitSpec>
nM

>  <reportedMeasurement>
157

$$$$
>  <molecule>
Oc1ccccc1C1CCC(C(O)c2c(C3CC3)ccc3cncn23)CC1 (stereo not shown) [Example D112]

>  <unitSpec>
nM

>  <reportedMeasurement>
50

$$$$
>  <molecule>
Cc1cccc([C@H]2CC[C@H]([C@H](O)c3c(C4CC4)ccn4cncc34)CC2)c1 (single isomer, unassigned) [Example C111a]

>  <unitSpec>
nM

>  <reportedMeasurement>
131

$$$$

Data point: OC(c1c(C2CC2)ccc2cncn12)C1CCC(c2ccccc2Cl)CC1 (stereo not shown) [Example D117] ; EC50 = 275

EC50 recorded for this molecule, O[C@H](c1c(C2CC2)ccc2cncn12)[C@H]1CC[C@H](c2ccnc3ccccc32)CC1 (single isomer, unassigned) [Example D140a] , is 38

// EC50 lookup, molecule = O[C@H](c1c(C2CC2)ccn2cncc12)[C@H]1CC[C@H](c2cccc3ncccc32)CC1 (single isomer, unassigned) [Example C126a] , result: 20

----------
Examples of compounds with documented log10 of IC50 follow.
molecular target: UniProt P14902; assay: IDO1 enzymatic assay; format: biochemical; parameters: His tag (N); made in house; host or cells: E. coli; conditions: read-out: Enzyme IC50 IDO1
// do not treat as linear: log10 of IC50, unit µM

>  <compound>
COc1ccc([C@H]2CC[C@H]([C@@H](O)c3c(C4CC4)ccn4cncc34)CC2)cc1 [Example C101b]

>  <measuredMetric>
log10 of IC50

>  <reportedMeasurement>
0.97

$$$$

For reference, reported log10 of IC50 for COCCOc1ccc([C@H]2CC[C@H]([C@H](O)c3c(C4CC4)ccn4cncc34)CC2)cc1 (single isomer, unassigned) [Example C103a] stands at -1.68

Just so you know, measured log10 of IC50 for OC(c1c(C2CC2)ccc2cncn12)C1CCN(c2cccc(Cl)c2)CC1 (centres unmarked) [Example D173] came out at -1.52

Measured log10 of IC50 of OC(c1c(C2CC2)ccc2cncn12)C1CCC(c2ccccc2)CC1 (centres unmarked) [Example D101] : -1.57

Documented log10 of IC50 of N#Cc1ccc(N2CCC(C(O)c3c(C4CC4)ccn4cncc34)CC2)cc1 (centres unmarked) [Example C144] : -1.40

Per the record, O=C(Nc1ccc(C2CCC(C(O)c3c(C4CC4)ccc4cncn34)CC2)cc1)OCc1ccccc1 (centres unmarked) [Example D121] has log10 of IC50 of -1.14

Summary for this compound, OC(c1c(C2CC2)ccc2cncn12)C1CCN(c2cccc3ncncc23)CC1 (centres unmarked) [Example D180] : log10 of IC50 is -1.52

Looking up OC(c1c(C2CC2)ccn2cncc12)C1CCC(c2ccc(F)cc2)CC1 (racemic) [Example C107] , I see its log10 of IC50 listed as -1.19
